FYI, the data here is from patent US9724381B2.

Target: Ghrelin/GHRP/GHS Receptor (Rattus norvegicus)
Test: In vivo GH release in rat (serum GH by RIA after i.v. peptide)
Conditions: Table 3; peptide alone 100 μg i.v.
Method: For the in vivo assay of GH Release in rat, immature female Sprague Dawley rats were obtained from Charles River from Wilmington, Mass. After arrival they were housed at 25° C. with a 14:10 h light:dark cycle. Water and Purina rat chow were available at libitum. Pups were weaned at 21 days of age. Immature twenty six day old female Sprague Dawley rats, 3-6 rats per treatment dose, were pretreated with pentobarbital 20 minutes before iv injection of vehicle/peptide or peptide plus stimulator. […]
Where no end group is shown, it is not given here. [ ]: non-standard residue; d: D form. d2Nal = N[C@H](Cc1ccc2ccccc2c1)C(=O)O; dCha = N[C@H](CC1CCCCC1)C(=O)O
Reported Unstimulated Basal GH Release from rat by item:
All answers are understood in ng/mL, so give the number only.

Worked examples follow.
Just so you know, measured Unstimulated Basal GH Release from rat for DcyclohexylAla-Ala-Phe-DTrp-Lys-NH2 ([dCha]AF[dW]K-NH2; N-terminus assumed; SMILES C[C@H](NC(=O)[C@H](N)CC1CCCCC1)C(=O)N[C@@H](Cc1ccccc1)C(=O)N[C@H](Cc1c[nH]c2ccccc12)C(=O)N[C@@H](CCCCN)C(N)=O) came out at 350

Reported Unstimulated Basal GH Release from rat of DAla-DβNal-Ala-Thr-DThr-Lys-NH2 ([dA][d2Nal]AT[dT]K-NH2; N-terminus assumed; SMILES C[C@H](NC(=O)[C@@H](Cc1ccc2ccccc2c1)NC(=O)[C@@H](C)N)C(=O)N[C@H](C(=O)N[C@@H](C(=O)N[C@@H](CCCCN)C(N)=O)[C@H](C)O)[C@@H](C)O) : 386

Given item DcyclohexylAla-Ala-Trp-DPhe-NH2 ([dCha]AW[dF]-NH2; N-terminus assumed; SMILES C[C@H](NC(=O)[C@H](N)CC1CCCCC1)C(=O)N[C@@H](Cc1c[nH]c2ccccc12)C(=O)N[C@H](Cc1ccccc1)C(N)=O) , the value recorded as its Unstimulated Basal GH Release from rat is 771

Please turn your attention to the following entry.
Form: substance = DβNal-Ala-Trp-DPhe-Leu-NH2 ([d2Nal]AW[dF]L-NH2; N-terminus assumed; SMILES CC(C)C[C@H](NC(=O)[C@@H](Cc1ccccc1)NC(=O)[C@H](Cc1c[nH]c2ccccc12)NC(=O)[C@H](C)NC(=O)[C@H](N)Cc1ccc2ccccc2c1)C(N)=O) ; Unstimulated Basal GH Release from rat = 645

* * *

Target: Ghrelin/GHRP/GHS Receptor (Rattus norvegicus, UniProt O08725)
Sequence (O08725 whole entry): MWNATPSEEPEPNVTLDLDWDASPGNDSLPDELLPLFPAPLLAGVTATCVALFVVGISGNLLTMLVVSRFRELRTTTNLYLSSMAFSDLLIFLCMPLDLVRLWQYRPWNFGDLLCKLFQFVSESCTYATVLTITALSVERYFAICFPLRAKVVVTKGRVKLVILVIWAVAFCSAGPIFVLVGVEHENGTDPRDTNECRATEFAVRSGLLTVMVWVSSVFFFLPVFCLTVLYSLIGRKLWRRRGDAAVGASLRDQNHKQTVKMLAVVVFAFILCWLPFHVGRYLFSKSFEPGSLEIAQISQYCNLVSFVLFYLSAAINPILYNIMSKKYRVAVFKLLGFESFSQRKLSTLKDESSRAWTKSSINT
Assay: In vivo GH release in rat (serum GH by RIA after i.v. peptide)
Details: Table 3; peptide alone 3 μg i.v.
Where no end group is shown, it is not given here. [ ]: non-standard residue; d: D form. d2Nal = N[C@H](Cc1ccc2ccccc2c1)C(=O)O; dCha = N[C@H](CC1CCCCC1)C(=O)O
Measurement Name: Unstimulated Basal GH Release from rat (ng/mL)
Unit ng/mL implied. Number only.

Item: DcyclohexylAla-Ala-Phe-DTrp-Lys-NH2 ([dCha]AF[dW]K-NH2; N-terminus assumed; SMILES C[C@H](NC(=O)[C@H](N)CC1CCCCC1)C(=O)N[C@@H](Cc1ccccc1)C(=O)N[C@H](Cc1c[nH]c2ccccc12)C(=O)N[C@@H](CCCCN)C(N)=O) | Unstimulated Basal GH Release from rat: 266

Others:
The recorded Unstimulated Basal GH Release from rat for entry DβNal-Ala-Trp-DPhe-Leu-NH2 ([d2Nal]AW[dF]L-NH2; N-terminus assumed; SMILES CC(C)C[C@H](NC(=O)[C@@H](Cc1ccccc1)NC(=O)[C@H](Cc1c[nH]c2ccccc12)NC(=O)[C@H](C)NC(=O)[C@H](N)Cc1ccc2ccccc2c1)C(N)=O) equals 253

* * *

Biological target: Ghrelin/GHRP/GHS Receptor (Rattus norvegicus, UniProt O08725)
Test: In vitro GH release from cell culture of pituitary cells
Assay type: cell-based
Design: After dispersion, the cells were collected by centrifugation, wash with DMEM and placed into culture well; endogenous in cells; host or cells: dispersed primary rat anterior pituitary cells
Conditions: Table 8; peptide antagonist dosage 10 (head prints μg/i.v.)
Experimental: In vitro GH Release-Female rats of the CD-1 strain were housed in a constant temperature room at 24° C. with 14 h light and 10 h darkness. The rats were fed Purina Rat chow and water at libitum. All studies were started between 0800-1000 hours. Pituitaries of mature female Sprague Dawley rats were rapidly removed after decapitation, neurointermediate lobe discarded and then placed in a pH 7.4 buffer. […]
Where no end group is shown, it is not given here. [ ]: non-standard residue; d: D form. dCha = N[C@H](CC1CCCCC1)C(=O)O; Nle = CCCC[C@H](N)C(=O)O
Values of Unstimulated Basal GH release from cell cultures of pituitary cells greater than or equal to 900 ng/mL map to Fulfilled; values below map to Not fulfilled.

Known results for substances:
Test whether the substance DAla-DcyclohexylAla-Ala-Ala-Phe-DPhe-Nle-NH2 ([dA][dCha]AAF[dF][Nle]-NH2; N-terminus assumed; SMILES CCCC[C@H](NC(=O)[C@@H](Cc1ccccc1)NC(=O)[C@H](Cc1ccccc1)NC(=O)[C@H](C)NC(=O)[C@H](C)NC(=O)[C@@H](CC1CCCCC1)NC(=O)[C@@H](C)N)C(N)=O) records Unstimulated Basal GH release from cell cultures of pituitary cells of 900 ng/mL or higher.
Not fulfilled

Confirm if Unstimulated Basal GH release from cell cultures of pituitary cells reported for the substance Arg-DTrp-Leu-Tyr-Trp-Pro(cyclic Arg-Pro) is 900 ng/mL or above.
Not fulfilled

Check if Unstimulated Basal GH release from cell cultures of pituitary cells >= 900 ng/mL (inclusive). Item: Ac-DLys-Tyr-DTrp-DTrp-Phe-NH2 (Ac-[dK]Y[dW][dW]F-NH2; SMILES CC(=O)N[C@H](CCCCN)C(=O)N[C@@H](Cc1ccc(O)cc1)C(=O)N[C@H](Cc1c[nH]c2ccccc12)C(=O)N[C@H](Cc1c[nH]c2ccccc12)C(=O)N[C@@H](Cc1ccccc1)C(N)=O)
Fulfilled

Attention now shifts to the item below.
hey, is Unstimulated Basal GH release from cell cultures of pituitary cells for this one >= 900 ng/mL? DLys-Tyr-DTrp-DTrp-Phe-NH2 ([dK]Y[dW][dW]F-NH2; N-terminus assumed; SMILES NCCCC[C@@H](N)C(=O)N[C@@H](Cc1ccc(O)cc1)C(=O)N[C@H](Cc1c[nH]c2ccccc12)C(=O)N[C@H](Cc1c[nH]c2ccccc12)C(=O)N[C@@H](Cc1ccccc1)C(N)=O)
Fulfilled

* * *

Each item that follows carries a reported Unstimulated Basal GH Release from rat.
Target: Ghrelin/GHRP/GHS Receptor (Rattus norvegicus)
Test: In vivo GH release in rat (serum GH by RIA after i.v. peptide)
Conditions: Table 3; peptide alone 3 μg i.v.
Protocol: For the in vivo assay of GH Release in rat, immature female Sprague Dawley rats were obtained from Charles River from Wilmington, Mass. After arrival they were housed at 25° C. with a 14:10 h light:dark cycle. Water and Purina rat chow were available at libitum. Pups were weaned at 21 days of age. Immature twenty six day old female Sprague Dawley rats, 3-6 rats per treatment dose, were pretreated with pentobarbital 20 minutes before iv injection of vehicle/peptide or peptide plus stimulator. […]
Where no end group is shown, it is not given here. [ ]: non-standard residue; d: D form. d2Nal = N[C@H](Cc1ccc2ccccc2c1)C(=O)O
Express the result in ng/mL but write the number alone.

Value of measured Unstimulated Basal GH Release from rat for the entry DAla-DβNal-Ala-Ala-DAla-Lys-NH2 ([dA][d2Nal]AA[dA]K-NH2; N-terminus assumed; SMILES C[C@H](NC(=O)[C@H](C)NC(=O)[C@@H](Cc1ccc2ccccc2c1)NC(=O)[C@@H](C)N)C(=O)N[C@H](C)C(=O)N[C@@H](CCCCN)C(N)=O) : 235

// His-DTrp-Phe-Trp-DPhe-Lys-NH2 (H[dW]FW[dF]K-NH2; N-terminus assumed; SMILES NCCCC[C@H](NC(=O)[C@@H](Cc1ccccc1)NC(=O)[C@H](Cc1c[nH]c2ccccc12)NC(=O)[C@H](Cc1ccccc1)NC(=O)[C@@H](Cc1c[nH]c2ccccc12)NC(=O)[C@@H](N)Cc1c[nH]cn1)C(N)=O) : Unstimulated Basal GH Release from rat value = 141

Looking up DAla-DβNal-DAla-DTrp-Phe-Lys-NH2 ([dA][d2Nal][dA][dW]FK-NH2) , I see its Unstimulated Basal GH Release from rat listed as 467

Record summary for DβNal-Ala-Trp-DPhe-Ala-NH2 ([d2Nal]AW[dF]A-NH2; N-terminus assumed; SMILES C[C@H](NC(=O)[C@@H](Cc1ccccc1)NC(=O)[C@H](Cc1c[nH]c2ccccc12)NC(=O)[C@H](C)NC(=O)[C@H](N)Cc1ccc2ccccc2c1)C(N)=O) : reported Unstimulated Basal GH Release from rat = 694

Lab note: measured Unstimulated Basal GH Release from rat of DAla-DβNal-Ala-Thr-DThr-Lys-NH2 ([dA][d2Nal]AT[dT]K-NH2; N-terminus assumed; SMILES C[C@H](NC(=O)[C@@H](Cc1ccc2ccccc2c1)NC(=O)[C@@H](C)N)C(=O)N[C@H](C(=O)N[C@@H](C(=O)N[C@@H](CCCCN)C(N)=O)[C@H](C)O)[C@@H](C)O) was 255
